The values you see were collected from patent US7612104B2.

Biological target: human PPARdelta (Homo sapiens, UniProt Q03181)
Construct: amino acids S139-Y441
Sequence (Q03181 139-441): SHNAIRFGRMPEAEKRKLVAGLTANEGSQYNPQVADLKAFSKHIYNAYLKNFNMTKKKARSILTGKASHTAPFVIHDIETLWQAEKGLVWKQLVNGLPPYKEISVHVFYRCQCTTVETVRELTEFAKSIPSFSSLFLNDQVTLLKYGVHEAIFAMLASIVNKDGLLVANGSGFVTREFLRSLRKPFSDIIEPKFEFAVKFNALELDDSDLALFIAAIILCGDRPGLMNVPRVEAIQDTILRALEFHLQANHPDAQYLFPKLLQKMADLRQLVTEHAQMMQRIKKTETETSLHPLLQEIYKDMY
Assay: Cellular PPARdelta assay (stably transfected HEK reporter cell line, luciferase)
Conditions: GR-GAL4-humanPPARdelta-LBD
MEASURED ATTRIBUTE: EC50 (nM)
Form entry: value (nM) — number only.

The cases that follow already have their EC50 on record.
CCOc1cc(C(F)(F)F)ccc1C(=O)NC1Cc2ccc(S(=O)(=O)Nc3nnc(C(C)C)s3)cc2C1 (racemic) [Example 1]: 1
CCOc1cc(C(F)(F)F)ccc1C(=O)NC1Cc2ccc(S(=O)(=O)Nc3nnc(C(C)C)s3)cc2C1 (single isomer, unassigned; enantiomer 1) [Example 1.1]: 1

Now consider the entry below.
Give human PPARdelta (Homo sapiens, UniProt Q03181) EC50 for the following compound: CCOc1cc(C(F)(F)F)ccc1C(=O)NC1Cc2ccc(S(=O)(=O)Nc3nnc(C(C)C)s3)cc2C1 (single isomer, unassigned; enantiomer 2) [Example 1.2]
50

* * *

target: human PPARgamma (Homo sapiens); construct: amino acids I152-Y475; assay: Cellular PPARgamma assay (transiently transfected HEK cells, luciferase reporter); details: HEK cells transiently transfected with GAL4-humanPPARgammaLBD
Sequence (P37231 210-505 limits assumed): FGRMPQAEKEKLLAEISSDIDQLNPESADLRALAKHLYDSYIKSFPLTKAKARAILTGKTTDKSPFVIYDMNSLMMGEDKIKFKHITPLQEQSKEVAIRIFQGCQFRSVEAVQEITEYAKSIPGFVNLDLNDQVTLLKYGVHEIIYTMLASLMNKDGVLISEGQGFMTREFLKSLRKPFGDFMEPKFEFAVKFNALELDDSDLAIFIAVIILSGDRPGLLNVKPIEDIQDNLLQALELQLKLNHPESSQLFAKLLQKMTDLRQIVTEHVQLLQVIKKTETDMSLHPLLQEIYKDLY
Below, each entry is listed with its recorded EC50.
Form entry: value (nM) — number only.

The cases that follow already have their EC50 on record.
CCOc1cc(C(F)(F)F)ccc1C(=O)NC1Cc2ccc(S(=O)(=O)Nc3nnc(C(C)C)s3)cc2C1 (single isomer, unassigned; enantiomer 1) [Example 1.1]: 22
CCOc1cc(C(F)(F)F)ccc1C(=O)N[C@H]1CCc2ccc(S(=O)(=O)Nc3nnc(C(C)C)s3)cc2C1 [Example 5]: 100
CCOc1cc(C(F)(F)F)ccc1C(=O)N[C@@H]1CCc2ccc(S(=O)(=O)Nc3nnc(C(C)C)s3)cc2C1 [Example 6]: 200

Now consider the entry below.
Entry CCOc1cc(C(F)(F)F)ccc1C(=O)NC1Cc2ccc(S(=O)(=O)Nc3nnc(C(C)C)s3)cc2C1 (racemic) [Example 1] needs its EC50 filled in; supply it.
1

* * *

Below, each entry is listed with its recorded pEC50.
target: human PPARdelta (Homo sapiens, UniProt Q03181); construct: amino acids S139-Y441; experiment: Cellular PPARdelta assay (stably transfected HEK reporter cell line, luciferase); details: GR-GAL4-humanPPARdelta-LBD
Notebook: values listed as pEC50 are -log10 of the concentration (mol/L).

The cases that follow already have their pEC50 on record.
CCOc1cc(C(F)(F)F)ccc1C(=O)N[C@@H]1CCc2ccc(S(=O)(=O)Nc3nnc(C(C)C)s3)cc2C1 [Example 6]: 6.22
CCOc1cc(C(F)(F)F)sc1C(=O)NC1Cc2ccc(S(=O)(=O)Nc3nnc(C(C)C)s3)cc2C1 (stereo not drawn) [Example 11]: 9.00

Now consider the entry below.
Entry CCOc1cc(C(F)(F)F)ccc1C(=O)N[C@H]1CCc2ccc(S(=O)(=O)Nc3nnc(C(C)C)s3)cc2C1 [Example 5] needs its pEC50 filled in; supply it.
6.22
